Tested on: MDA-N
measurement.notes: NCI tumour cell line growth inhibition, 48 h
Calls of active or inactive are those of the source. No stated cut-off is given here; in the data, active = GI50 up to about 1.1 µM and inactive = higher.
Valid outcomes are listed here; reply with one: active, inactive

Exercise: Call for entry CSC1(C)C(=O)Nc2c(OCc3ccccc3)cc([N+](=O)[O-])cc21 (stereo not drawn) :
Key: inactive

Exercise: Which result was noted for this molecule in the test: "CCNC(=S)N/N=C/c1ccccn1"
Key: inactive

Exercise: Which outcome was entered for the molecule "CSC1(SC)N2Cc3ccccc3N=C2C1(c1ccccc1)c1ccccc1" in this test?
Key: inactive

Exercise: Record lookup: outcome of this test for COc1ccc(CC2COc3cc(O)cc(O)c3C2=O)cc1O (stereo not drawn) ?
Key: inactive

Exercise: State the result this test recorded for "O=c1c2c(oc3ccccc13)-c1ccccc1OC2" .
Key: inactive

Exercise: What classification did "COc1ccc(Nc2nc(N)c(C(=O)c3c[nH]c4ccccc34)s2)cc1" end up with in this test?
Key: active

Exercise: Returns: the outcome recorded for CC(=O)c1ccc2c(c1)CC1(C2)Cc2cc3c(cc2C1=O)CCC3 (stereo not drawn) in this assay.
Key: inactive

Exercise: Per the assay record, what outcome was assigned to "Cc1cccc(-c2nc3ccc([N+](=O)[O-])cc3c(=O)o2)c1" ?
Key: inactive

Exercise: Hi, sorry to bother you, what did the test record for "COc1cccc(/C=C2/S/C(=N/Nc3nc(C)c(C(C)=O)s3)NC2=O)c1O" ?
Key: inactive

Exercise: Hey, what did the test say about COc1ccc(/N=N/C(=O)NC(CC(C)C)C(N)=O)cc1 (stereo not drawn) ?
Key: inactive

Exercise: For O=c1cc(O)c2ccccc2o1 [4-HYDROXYCOUMARINS] , what call appears in the results of this test?
Key: inactive

Exercise: Which outcome was entered for the molecule CCOC(=O)CCC(NC(=O)Cc1ccc(Nc2nc3cc(F)c(F)cc3nc2C(=O)OCC)cc1)C(=O)OCC (stereo not drawn) in this test?
Key: inactive

Exercise: Just curious, what result did O=[N+]([O-])c1ccc(C2=NOC(c3ccccc3F)N2C23CC4CC(CC(C4)C2)C3)cc1 (stereo not drawn) get here?
Key: inactive

Exercise: Per the records of this test, what outcome belongs to CC12C3C4C1C1C2C3C41CO (stereo not drawn) ?
Key: inactive

Exercise: I would be grateful if you could indicate the recorded call for O=C(CCC(NC(=O)OCc1ccccc1)C(=O)OCc1ccccc1)Nc1cccc(OCc2ccccc2)c1 (stereo not drawn) .
Key: inactive

Exercise: Hey, what did the test say about OC1C2CCC3C2CC(C(O)(c2ccccc2)c2ccccc2)C13 (stereo not drawn) ?
Key: inactive

Exercise: Can you look up the reported call for Cc1cc2nnn(C3CCCO3)c2cc1C (stereo not drawn) for me?
Key: inactive

Exercise: Would you mind telling me which call this test gave "CC(C)CNc1nc2ncnc(N)c2[nH]1" ?
Key: inactive

Exercise: Can you look up the reported call for "O=C1CCCCC/C1=C\c1cccc(Cl)c1" for me?
Key: inactive

Exercise: // outcome(item) with item = "CN(N=O)N1C(=O)SCC(c2ccccc2)(c2ccccc2)C1=O"
Key: inactive

Exercise: What outcome does the record of this test show for COc1nc(C(Cl)(Cl)Cl)c(Cl)c(OC)c1Cl [PENCLOMEDINE] ?
Key: inactive

Exercise: Per the records of this test, what outcome belongs to "Cc1ccc(C)c2c1NC(=O)/C2=N\Nc1ccccc1[N+](=O)[O-]" ?
Key: inactive

Exercise: Identify the outcome logged in this assay for the molecule shown: COC(=O)CC1(O)C(/C=C/c2ccccc2)C(C(=O)OC)C(=O)C(C(=O)OC)C1C(=O)OC (stereo not drawn)
Key: inactive
